test: qHTS assay to identify aromatase inhibitors - cell viability counter screen (AID 743084); conditions: MCF-7 aro ERE viability, CellTiter-Fluor, 24 h; series mostly up to 70.3 µM;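 further: cells stimulated with testosterone during compound exposure; nearly all actives have a fitted effect of over 55% in size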; further: potency means the concentration at half of the fitted maximal effect
Inconclusive results are not listed. Activity calls are given as the source filed them. The call rests on the fitted dose curve; in most records, active means well fitted cell-killing curve with a large enough effect in the repeat runs; inconclusive means weak or mixed curves, or effect the other way; inactive means no such curve, though single readings can be large or run the other way.
reported-endpoint: Potency

[
  {
    "compound": "CCCCCCc1ccc(N)cc1",
    "result": "inactive"
  },
  {
    "compound": "Cc1cc(C)c(S(=O)(=O)O)cc1N=Nc1cc(S(=O)(=O)O)c2ccccc2c1O",
    "result": "24.3 µM (active)"
  },
  {
    "compound": "FC(F)(F)C(F)(F)C(F)(F)C(F)(F)C(F)(F)C(F)(F)CCI",
    "result": "inactive"
  },
  {
    "compound": "Oc1ccc(C(O)CNCCCCCCNCC(O)c2ccc(O)c(O)c2)cc1O (stereo unspecified)",
    "result": "21.1 µM (active)"
  },
  {
    "compound": "O=C(O)Cc1cc(I)c(Oc2ccc(O)c(I)c2)c(I)c1",
    "result": "inactive"
  },
  {
    "compound": "O=C(NS(=O)(=O)/C=C/c1cccs1)c1ccc(F)cc1Br",
    "result": "inactive"
  }
]
